test system: morningglory (Ipomoea hederacea); test: Test C preemergence; type: in vivo; settings: preemergence, Rate 31 g/ha, scale 0 to 100
Quantity name: Plant response rating, Morningglory
Answer with the value's number alone.

- Molecule: "CCC(CC)c1ccn(C2SCN(c3cccc(C(F)(F)F)c3)C2=O)n1 (stereo not shown) [Compound 25]"
  System name: "morningglory (Ipomoea hederacea)"
  Plant response rating, Morningglory: 0

The value of Plant response rating, Morningglory measured for the molecule CC(C)c1ccn(C2OCN(c3cccc(C(F)(F)F)c3)C2=O)n1 (stereo not shown) [Compound 27] turned out to be 0

Reported Plant response rating, Morningglory ( Cc1cc(C)nc(N2CCC(n3ccc(C(C)(C)C)n3)C2=O)c1 (stereo not shown) [Compound 138] ) = 30

Per the record, CC(C)(C)c1ccn(C2CCN(c3cccc(OC(F)(F)F)c3)C2=O)n1 (stereo not shown) [Compound 49] has Plant response rating, Morningglory of 0

Item: CC(C)(C)c1ccn(C2CCN(c3cccc(Cl)c3)C2=O)n1 (stereo not shown) [Compound 43] | Plant response rating, Morningglory: 0

Query Cc1ccc(N2CCC(n3ccc(C(C)(C)C)n3)C2=O)cc1OCCCl (stereo not shown) [Compound 109] yields Plant response rating, Morningglory of 30

The molecule listed as CCC(CC)c1ccn(C2CCN(c3ccc(C)c(OC)c3)C2=O)n1 (stereo not shown) [Compound 81] has a reported Plant response rating, Morningglory of 0

====

tested on: crabgrass (Digitaria sanguinalis); assay: Test B preemergence; format: in vivo; conditions: Preemergence, Rate 500 g/ha; scale 0 to 100, 0 no effect, 100 complete control
Quantity name: Plant response rating, Crabgrass

Guide cases for Plant response rating, Crabgrass, answers given:
- Compound: "CC(C)c1ccn(C2SCN(c3cccc(OC(F)F)c3)C2=O)n1 (stereo not shown)"
  Plant response rating, Crabgrass: 100
- Compound: "CC1(c2ccn(C3SCN(c4cccc(C(F)(F)F)c4)C3=O)n2)CC1 (stereo not shown)"
  Plant response rating, Crabgrass: 100

Recorded result, CC(C)c1ccn(C2OCN(c3cccc(C(F)(F)F)c3)C2=O)n1 (stereo not shown) , Plant response rating, Crabgrass: 90

For this compound ( CCC(C)c1ccn(C2OCN(c3cccc(OC(F)F)c3)C2=O)n1 (stereo not shown) ), measured Plant response rating, Crabgrass is 100

Reported Plant response rating, Crabgrass of CCC(CC)c1ccn(C2CCN(c3ccc(Cl)c(OC)c3)C2=O)n1 (stereo not shown) : 100

Notebook: CC(C)(C)c1ccn(C2SCN(c3cccc(OC(F)(F)F)c3)C2=O)n1 (stereo not shown) , Plant response rating, Crabgrass read as 100

Please fill in: Plant response rating, Crabgrass reported for O=C1C(n2cccn2)SCN1c1cccc(C(F)(F)F)c1 (stereo not shown) = 0

====

system: johnsongrass (Sorghum halepense); assay: Test C preemergence; type: in vivo; conditions: preemergence, Rate 62 g/ha, scale 0 to 100
Quantity name: Plant response rating, Johnsongrass
Please reply with the number alone, leaving off any unit.

Recorded results for 3 compounds are shown here.
- Compound: "CSc1cccc(N2CCC(n3ccc(C(C)(C)C)n3)C2=O)c1 (centres unmarked)"
  Plant response rating, Johnsongrass: 20
- Compound: "CCC(CC)c1ccn(C2CCN(c3ccc(F)c(C(F)(F)F)c3)C2=O)n1 (centres unmarked)"
  Plant response rating, Johnsongrass: 0
- Compound: "CC(C)(C)c1ccn(C2CCN(c3cccc(SC(F)(F)F)c3)C2=O)n1 (centres unmarked)"
  Plant response rating, Johnsongrass: 0

Input CCC(C)c1ccn(C2CCN(c3cccc(OC)c3)C2=O)n1 (centres unmarked) . Output Plant response rating, Johnsongrass: 30

So, CCCC(C)c1ccn(C2OCN(c3cccc(OC(F)F)c3)C2=O)n1 (centres unmarked) ? Its Plant response rating, Johnsongrass was 50

Each recorded value in this set is attributed to patent US7138361B2.
